tested-on: T1, human FGFR3b expressed with a C-terminal myc-myc-hexahistidine tag (hFGFR3b.mmH) (human)
T1 construct: also called REGN3152; monomeric human FGFR3b
T1 chain: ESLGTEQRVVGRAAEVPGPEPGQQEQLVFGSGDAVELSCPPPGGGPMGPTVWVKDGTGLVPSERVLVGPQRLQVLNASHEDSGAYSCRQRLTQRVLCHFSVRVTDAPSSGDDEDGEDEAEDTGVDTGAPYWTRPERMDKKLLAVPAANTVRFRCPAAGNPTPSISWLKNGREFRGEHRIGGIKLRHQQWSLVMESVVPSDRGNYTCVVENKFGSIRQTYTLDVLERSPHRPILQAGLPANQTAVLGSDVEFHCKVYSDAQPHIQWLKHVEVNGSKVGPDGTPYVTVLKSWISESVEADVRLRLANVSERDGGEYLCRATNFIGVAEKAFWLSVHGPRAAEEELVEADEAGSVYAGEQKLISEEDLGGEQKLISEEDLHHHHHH
assay-overview: SPR Biacore, mAb captured on anti-hFc, 25C
For each of the binders below, state its pKd.
Remember, pKd is on a log scale: it is -log10 of the molar concentration.

QUERY: Give its pKd value. Item: H4H30045P (antibody, human IgG4 S228P, kappa, V domains shown, HCVR 179, LCVR 187) VH: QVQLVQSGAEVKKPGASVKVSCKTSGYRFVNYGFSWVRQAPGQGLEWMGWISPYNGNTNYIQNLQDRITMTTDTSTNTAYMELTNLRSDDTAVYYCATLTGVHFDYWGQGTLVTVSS VL: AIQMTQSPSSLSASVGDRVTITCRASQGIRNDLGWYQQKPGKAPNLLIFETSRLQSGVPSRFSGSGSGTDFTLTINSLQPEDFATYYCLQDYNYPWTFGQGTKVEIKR
RESULT: 7.79

QUERY: Then what about the binder H4H30063P (antibody, human IgG4 S228P, kappa, V domains shown, HCVR 2, LCVR 10; also called REGN15684) VH: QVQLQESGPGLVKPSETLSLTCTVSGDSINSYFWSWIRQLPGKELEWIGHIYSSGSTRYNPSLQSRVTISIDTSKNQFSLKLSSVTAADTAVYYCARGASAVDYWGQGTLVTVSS VL: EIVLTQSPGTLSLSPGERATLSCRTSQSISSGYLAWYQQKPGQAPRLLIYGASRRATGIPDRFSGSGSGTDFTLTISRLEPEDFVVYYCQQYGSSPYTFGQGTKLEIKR ?
RESULT: 9.65

QUERY: # iterate: REGN6331 (antibody, human IgG1, kappa, V domains shown, hIgG1 comparator; also called COMP6331; anti-FGFR3-hIgG1 comparator) VH: EVQLVESGGGLVQPGGSLRLSCAASGFTFTSTGISWVRQAPGKGLEWVGRIYPTSGSTNYADSVKGRFTISADTSKNTAYLQMNSLRAEDTAVYYCARTYGIYDLYVDYTEYVMDYWGQGTLVTVSS VL: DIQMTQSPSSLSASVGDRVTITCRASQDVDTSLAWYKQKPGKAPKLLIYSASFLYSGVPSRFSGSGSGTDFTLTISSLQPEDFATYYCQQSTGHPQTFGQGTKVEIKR
RESULT: 9.16
